The values you see were collected from paper PMC11772769.

B1: MBP-SNX17 (full-length, wild-type) [not stated] / Peptide LRP1_(14mer) [modified: 5-FAM (5-carboxyfluorescein) on the N-terminus; 5-FAM (5-carboxyfluorescein) on the N-terminus] [not stated] (parent complex)
chain 1: MHFSIPETESRSGDSGGSAYVAYNIHVNGVLHCRVRYSQLLGLHEQLRKEYGANVLPAFPPKKLFSLTPAEVEQRREQLEKYMQAVRQDPLLGSSETFNSFLRRAQQETQQVPTEEVSLEVLLSNGQKVLVNVLTSDQTEDVLEAVAAKLDLPDDLIGYFSLFLVREKEDGAFSFVRKLQEFELPYVSVTSLRSQEYKIVLRKSYWDSAYDDDVMENRVGLNLLYAQTVSDIERGWILVTKEQHRQLKSLQEKVSKKEFLRLAQTLRHYGYLRFDACVADFPEKDCPVVVSAGNSELSLQLRLPGQQLREGSFRVTRMRCWRVTSSVPLPSGSTSSPGRGRGEVRLELAFEYLMSKDRLQWVTITSPQAIMMSICLQSMVDELMVKKSGGSIRKMLRRRVGGTLRRSDSQQAVKSPPLLESPDATRESMVKLSSKLSAVSLRGIGSPSTDASASDVHGNFAFEGIGDEDL
chain 2: MNVEIGNPTYKMYE

Variants of: B1
Assay: fluorescence anisotropy; 5-FAM-labeled LRP1 14-mer peptide
Assignment: determine reported Kd for the given variants.
The reply should contain only the number, in nM.

What the record says about chain 1 H457A : Kd is 3800

What the record says about chain 1 N459A, chain 1 F462A : Kd is 1500
